This collection of values is drawn from ChEMBL document CHEMBL1828554.

tgt: Bromodomain-containing protein 2 (Homo sapiens)
Sequence (P25440 whole entry, looked up): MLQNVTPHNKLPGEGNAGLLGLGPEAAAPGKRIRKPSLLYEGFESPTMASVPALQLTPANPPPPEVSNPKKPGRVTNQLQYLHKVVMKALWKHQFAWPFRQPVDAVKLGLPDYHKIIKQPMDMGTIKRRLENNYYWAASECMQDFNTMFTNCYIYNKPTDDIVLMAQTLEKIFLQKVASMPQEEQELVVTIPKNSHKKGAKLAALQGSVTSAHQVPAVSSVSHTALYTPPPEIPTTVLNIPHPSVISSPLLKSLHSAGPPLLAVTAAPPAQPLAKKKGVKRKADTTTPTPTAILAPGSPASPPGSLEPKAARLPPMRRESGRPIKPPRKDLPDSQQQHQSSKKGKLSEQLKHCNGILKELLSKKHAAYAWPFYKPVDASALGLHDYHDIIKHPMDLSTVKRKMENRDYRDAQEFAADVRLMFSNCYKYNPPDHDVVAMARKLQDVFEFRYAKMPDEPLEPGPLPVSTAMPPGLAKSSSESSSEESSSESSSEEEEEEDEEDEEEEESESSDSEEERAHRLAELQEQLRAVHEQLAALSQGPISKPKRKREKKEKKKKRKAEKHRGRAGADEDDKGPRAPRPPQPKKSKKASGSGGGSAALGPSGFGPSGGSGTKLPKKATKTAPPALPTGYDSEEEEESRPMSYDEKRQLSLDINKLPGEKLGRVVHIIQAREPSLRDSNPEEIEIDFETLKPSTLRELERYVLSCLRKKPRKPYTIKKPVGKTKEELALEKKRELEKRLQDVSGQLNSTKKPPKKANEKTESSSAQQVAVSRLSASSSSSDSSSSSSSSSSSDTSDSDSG
assay-summary: Binding affinity to first bromodomain of BRD2 assessed as change in melting temperature at 100 uM by differential scanning fluorimetry
property-name: ΔTm (°C)
Field format: number, assumed °C, no unit text.

>>> endpoint_value("CC(=O)c1cccc(-c2c(C)noc2C)c1")
1.3
>>> endpoint_value("CCOc1cc(C(=O)O)cc(-c2c(C)noc2C)c1")
1.1
>>> endpoint_value("Cc1noc(C)c1-c1ccccc1")
0.9
>>> endpoint_value("CCOc1cccc(-c2c(C)noc2C)c1")
1.3
>>> endpoint_value("CCOc1cc(C(C)=O)cc(-c2c(C)noc2C)c1")
3.2
>>> endpoint_value("Cc1noc(C)c1-c1ccc2c(c1)CN(C)C(=O)N2")
5.4
>>> endpoint_value("Cc1noc(C)c1-c1cccc(C(C)O)c1 (racemic)")
3.3
>>> endpoint_value("CCOc1cc(-c2c(C)noc2C)cc(C(C)O)c1 (racemic)")
6.1

Shift focus to the following entry.
// sample `CCOC(=O)c1cc(OCC)cc(-c2c(C)noc2C)c1` , its ΔTm was 2.3
